compounds and their reported pKi
Target: 5-HT1F receptor (Homo sapiens)
Sequence (P30939 1-366): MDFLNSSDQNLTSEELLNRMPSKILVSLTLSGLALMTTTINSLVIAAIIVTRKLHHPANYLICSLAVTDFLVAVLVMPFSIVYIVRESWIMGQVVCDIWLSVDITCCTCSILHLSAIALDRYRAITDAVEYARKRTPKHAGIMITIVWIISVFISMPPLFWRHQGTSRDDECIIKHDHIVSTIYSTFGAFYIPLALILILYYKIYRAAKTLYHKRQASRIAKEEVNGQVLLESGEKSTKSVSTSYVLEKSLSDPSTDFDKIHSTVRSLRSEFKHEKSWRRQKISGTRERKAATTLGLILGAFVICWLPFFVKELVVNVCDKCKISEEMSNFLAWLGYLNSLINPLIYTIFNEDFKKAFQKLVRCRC
Assay: biochemical
Settings: Table I; displacement of 4.5-5.5 nM [3H]5-HT, 37° C., 30 minutes; read-out: 5-HT1F BINDING Ki
Formally, pKi is defined as -log10 of the concentration c, with c in mol/L.

- COMPOUND: "Clc1ccc2[nH]cc(C3CCN(CCc4cnn(-c5ccc(I)cc5)c4)CC3)c2c1 [Example 38]"
  ENDPOINT_NAME: "pKi"
  NUMERIC_VALUE: 7.11
- COMPOUND: "Clc1ccc2[nH]cc(C3CCN(CCc4cnn(-c5ccc(Br)cc5)c4)CC3)c2c1 [Example 37]"
  ENDPOINT_NAME: "pKi"
  NUMERIC_VALUE: 7.18
- COMPOUND: "c1ccc(-n2cc(CCN3CCC(c4c[nH]c5ccccc45)CC3)cn2)cc1 [Example 23]"
  ENDPOINT_NAME: "pKi"
  NUMERIC_VALUE: 8.37

Turning to the following compound.
Recall and state the measured pKi for CC(C)n1cc(CCN2CCC(c3c[nH]c4ccc(Cl)cc34)CC2)cn1 [Example 8] .
8.39
